From: patent US12129312B2

EC50 reference
# target_entity: human Chemokine like receptor 1 (Homo sapiens)
# Construct: host or cells: U2OS (Tango CMKLR1-bla U2OS)
# Sequence (Q99788 1-373): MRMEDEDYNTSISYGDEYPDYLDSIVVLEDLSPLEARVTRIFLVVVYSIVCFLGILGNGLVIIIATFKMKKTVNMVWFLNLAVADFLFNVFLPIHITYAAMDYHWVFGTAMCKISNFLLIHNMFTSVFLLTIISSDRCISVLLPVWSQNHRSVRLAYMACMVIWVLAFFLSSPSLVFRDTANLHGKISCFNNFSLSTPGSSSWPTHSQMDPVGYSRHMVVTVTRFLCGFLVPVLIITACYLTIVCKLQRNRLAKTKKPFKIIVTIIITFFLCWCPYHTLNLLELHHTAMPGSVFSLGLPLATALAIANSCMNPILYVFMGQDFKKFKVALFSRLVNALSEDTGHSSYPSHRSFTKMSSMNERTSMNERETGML
# test: Activation of Tango CMKLR1-bla U2OS cells (beta-lactamase FRET reporter)
# Format: cell-based
# details: determination by the method of Effect Embodiment 1; read-out: EC50
Numbered stars: 1 amine (or outer) side, 2 acyl side, 3 side chain; on linkers, the order of the positions; unused ones are H or OH. Square brackets hold non-standard residues; d marks the D form. Peptide text beside a SMILES is read from it. * marks the point of attachment. X4 = O=C([C@@H]1Cc2ccsc2CN1[*:1])[*:2]; X5 = O=C([C@H]1c2ccccc2CCN1[*:1])[*:2]; dNMeY = CN[C@H](Cc1ccc(O)cc1)C(=O)O; NEtLeu = CCN[C@@H](CC(C)C)C(=O)O; Tic = O=C(O)[C@@H]1Cc2ccccc2CN1; NMeL = CN[C@@H](CC(C)C)C(=O)O; NHPhenethyl = c1ccc(CCN*)cc1; hSer = N[C@@H](CCO)C(=O)O; CO = O=C([*:1])[*:2]

| molecule | EC50 |
| --- | --- |
| CCN(C(=O)[C@H](Cc1ccccc1)NC(=O)[C@H](N)Cc1ccc(O)cc1)[C@@H](CC(C)C)C(=O)N1CCC[C@H]1C(=O)N[C@H](CO)C(=O)N[C@@H](CCC(N)=O)C(=O)N[C@@H](Cc1ccccc1)C(=O)N[C@H](C)C(=O)N1Cc2ccccc2C[C@H]1C(=O)N[C@@H](CO)C(=O)O [YW-183] (H-[dY]F[NEtLeu]P[dS]QF[dA][Tic]S-OH) | 9.2 nM |
| CC(C)C[C@H](NC(=O)[C@H](Cc1ccccc1)NC(=O)[C@H](N)Cc1ccc(O)cc1)C(=O)N1CCC[C@H]1C(=O)N[C@H](CO)C(=O)N[C@@H](CCC(N)=O)C(=O)N[C@@H](Cc1ccccc1)C(=O)N[C@H](C)C(=O)N1Cc2sccc2C[C@H]1C(=O)N[C@@H](CO)C(=O)O [YW-158] (H-[dY]FLP[dS]QF[dA][X4]S-OH; N-terminus assumed) | 65 nM |
| CN[C@H](Cc1ccc(O)cc1)C(=O)N[C@@H](Cc1ccccc1)C(=O)N[C@@H](CC(C)C)C(=O)N1CCC[C@H]1C(=O)N[C@H](CO)C(=O)N[C@@H](CCC(N)=O)C(=O)N[C@@H](Cc1ccccc1)C(=O)N[C@H](C)C(=O)N1Cc2ccccc2C[C@H]1C(=O)N[C@@H](CO)C(=O)O [YW-103] (H-[dNMeY]FLP[dS]QF[dA][Tic]S-OH; N-terminus assumed) | 9.4 nM |
| CC(C)C[C@H](NC(=O)[C@H](Cc1ccccc1)NC(=O)[C@@H](Cc1ccc(O)cc1)NC(=O)NCCc1ccccc1)C(=O)N1CCC[C@H]1C(=O)N[C@H](CO)C(=O)N[C@@H](CCC(N)=O)C(=O)N[C@@H](Cc1ccccc1)C(=O)N[C@H](C)C(=O)N1Cc2ccccc2C[C@H]1C(=O)N[C@@H](CO)C(=O)O [YW-72] ({NHPhenethyl-CO}-[dY]FLP[dS]QF[dA][Tic]S-OH) | 45 nM |
| CC(C)C[C@H](NC(=O)[C@H](Cc1ccccc1)NC(=O)[C@H](N)Cc1ccc(O)cc1)C(=O)N1CCC[C@H]1C(=O)N[C@H](CO)C(=O)N[C@@H](CCC(N)=O)C(=O)N[C@@H](Cc1ccccc1)C(=O)N[C@H](C)C(=O)N1CCc2ccccc2[C@@H]1C(=O)N[C@@H](CO)C(=O)O [YW-151] (H-[dY]FLP[dS]QF[dA][X5]S-OH) | 27 nM |
| CC(C)C[C@@H](C(=O)N1CCC[C@H]1C(=O)N[C@H](CO)C(=O)N[C@@H](CCC(N)=O)C(=O)N[C@@H](Cc1ccccc1)C(=O)N[C@H](C)C(=O)N1Cc2ccccc2C[C@H]1C(=O)N[C@@H](CCO)C(=O)O)N(C)C(=O)[C@H](Cc1ccccc1)NC(=O)[C@H](N)Cc1ccc(O)cc1 [YW-171] (H-[dY]F[NMeL]P[dS]QF[dA][Tic][hSer]-OH) | 29 nM |
